Tested on: U2OS
ASSAY_REMARKS: cell viability relative to DMSO; higher = less toxic
PARTICULARS: 72 h; 10 nM
PROPERTY_LABEL: cell viability

What value of cell viability has been recorded for this entry: N[C@@H](CC(=O)N1CCn2c(nnc2C(F)(F)F)C1)Cc1n[nH]c2c(F)c(F)ccc12
100%

Next: Nc1nc(CC(=O)Nc2ccc(CCNC[C@H](O)c3ccccc3)cc2)cs1
98.2%

Next: COc1cc(C(=O)c2c(C)oc3c(O)c(OC)ccc23)cc(OC)c1OC
44.7%

Next: COc1ccc2c(C(=S)N(C)CC(=O)O)cccc2c1C(F)(F)F
98.4%

Next: COc1ccccc1CC(=N)N1C[C@@H]2C(=O)CCC(c3ccccc3)(c3ccccc3)[C@@H]2C1
95.1%

Next: O=C(CCCCCCC(=O)NO)NO
96.3%

Next: CNC(=O)c1cccc2cc(Oc3ccnc4cc(OCC5(N)CC5)c(OC)cc34)ccc12
94.4%

Next: CCN(CC)CCNC(=O)c1ccc(N)cc1 [procainamide]
97.9%

Next: Oc1nc(-c2ccc(C(F)(F)F)cc2)nc2c1CSCC2
101%

Next: C=CCc1cccc(/C=N/NC(=O)CN2CCN(Cc3ccccc3)CC2)c1O
101%

Next: CN(C)CCCSc1ccccc1NC(=O)/C=C/c1ccccc1
99.6%

Next: O=C1/C(=C/c2ccccc2)C[C@@]2(O)[C@H]3Cc4ccc(O)c5c4[C@@]2(CCN3CC2CC2)[C@H]1O5
102%

Next: NS(=O)(=O)c1cc2c(cc1Cl)N=C(CSCc1ccccc1)NS2(=O)=O [benzthiazide]
98.8%

Next: O=C(NCc1ccccc1)c1csc(Nc2ccncn2)n1
100%

Next: CC(Cc1ccccc1)NCCC(c1ccccc1)c1ccccc1 (centres undefined)
94.7%

Next: O=[N+]([O-])c1ccc(O)c([N+](=O)[O-])c1
102%

Next: COc1cc2ncnc(Sc3nnc(C)s3)c2cc1OC
99.4%

Next: O=C(O)/C=C1\CCCc2ccccc2[C@H]1O (racemic)
102%

Next: C=CC(=O)N1CCC[C@@H](n2nc(-c3ccc(Oc4ccccc4)cc3)c3c(N)ncnc32)C1
100%

---

System: Vero E6
ASSAY_REMARKS: cell viability relative to DMSO; higher = less toxic
PARTICULARS: 72 h; 1000 nM
Give measured cell viability for each item. Keep answers brief.
Your answer is read as %, so omit the unit and give the number.

What value of cell viability has been recorded for this entry: Oc1ccc(Cl)c2cccnc12
101

Next: O=C(O)/C=C1\CCCc2ccccc2[C@H]1O (racemic)
99.1

Next: C=CC(=O)Nc1cccc(C)c1Nc1ncc2cc(-c3c(Cl)c(OC)cc(OC)c3Cl)ccc2n1
97.6

Next: COC(=O)c1cc(OC)c2c(c1-c1c(C(=O)OC)cc(OC)c3c1OCO3)OCO2 [bifendate]
94.6

Next: O=C(NC1CCN(CCCCC2(C(=O)NCC(F)(F)F)c3ccccc3-c3ccccc32)CC1)c1ccccc1-c1ccc(C(F)(F)F)cc1 [lomitapide]
97.8

Next: Nc1nc(=O)n([C@@H]2CS[C@H](CO)O2)cc1F
104

Next: CCN(CC)C(=O)[C@@]1(c2ccccc2)C[C@H]1CN
102

Next: COc1ccc2nc3cc(Cl)ccc3c(Nc3cc(CN4CCCC4)c(O)c(CN4CCCC4)c3)c2n1
96.7

Next: CC(C)N(CCNC(=O)CN1CCCC1=O)C(C)C
99.7

Next: CN(C)CCCSC(=N)N
100

Next: O=[N+]([O-])c1ccc(O)c([N+](=O)[O-])c1
92.9

Next: COc1ccccc1CC(=N)N1C[C@@H]2C(=O)CCC(c3ccccc3)(c3ccccc3)[C@@H]2C1
95.9

Next: O=C(O)CCC(=O)Nc1ccc(S(=O)(=O)Nc2nccs2)cc1
92.1

Next: CCN(CC)CCOC(=O)C(c1ccccc1)C1CCCCC1 (stereo not given)
107

Next: Cc1c(Cl)cccc1Nc1ccccc1C(=O)O
98.8

Next: CC(=O)OCC(=O)[C@@]12OC3(CCCC3)O[C@@H]1C[C@H]1[C@@H]3CCC4=CC(=O)C=C[C@]4(C)[C@@]3(F)[C@@H](O)C[C@@]12C [amcinonide]
95.6

Next: O=[N+]([O-])c1cc(Cl)ccc1S(=O)(=O)N1CCN(Cc2ccccc2)CC1
96.1

Next: N=C(N)NC(=O)c1cnccn1
106

Next: CCN[C@H]1CN(CCCOC)S(=O)(=O)c2sc(S(N)(=O)=O)cc21 [brinzolamide]
85.9

Next: CO/N=C(\C(=O)N[C@@H]1C(=O)N2C(C(=O)OCOC(=O)C(C)(C)C)=C(/C=C\c3scnc3C)CS[C@H]12)c1csc(N)n1
92.7

Next: CCCCN(CC)c1nc(C)nc2c1c(C)c(C)n2-c1c(C)cc(C)cc1C
101

Next: NCC(O)(CS(=O)(=O)O)c1ccc(Cl)cc1 (stereo not given) [2-hydroxysaclofen]
97.2

Next: NC1CCN(c2cccc(Cl)n2)CC1
96

Next: Nc1nc(CC(=O)Nc2ccc(CCNC[C@H](O)c3ccccc3)cc2)cs1
93.2

Next: CC1=NN(c2ccc(C)c(C)c2)C(=O)/C1=N\Nc1cccc(-c2cccc(C(=O)O)c2)c1O
90.7

Next: CCn1c(O)nnc1-c1ccc(Cl)cc1 [5-(4chlorophenyl)-4-ethyl-2,4-dihydro-3H-1,2,4-triazol-3-one]
106

Next: CCn1c2ccccc2c2cc(Nc3ccnc(NCCCN4CCOCC4)n3)ccc21
94.3

Next: CNC(=O)c1cccc2cc(Oc3ccnc4cc(OCC5(N)CC5)c(OC)cc34)ccc12
86.1

Next: C=C1CC[C@H](O)C/C1=C/C=C1\CCC[C@]2(C)[C@@H]([C@H](C)CCCC(C)(C)O)CC[C@@H]12
97.3

Next: COC(=O)/C=C/C(=O)OCCN1C(=O)CCC1=O [diroximel-fumarate]
99

Next: CC(=O)Nc1cccc(Nc2ncnc(N3CCC(OCc4ccc(OC(F)(F)F)cc4)CC3)n2)c1C
94.4

Next: COc1cc2c(Oc3ccc(NC(=O)C4(C(=O)Nc5ccc(F)cc5)CC4)cc3F)ccnc2cc1OCCCN1CCOCC1
74.3

Next: CC(=O)NC1N=C(c2ccccc2)c2ccccc2NC1=O (stereo not given)
93.7

Next: OCCN1CCN(CCCN2c3ccccc3Sc3ccc(C(F)(F)F)cc32)CC1
95.5

Next: CC(Cc1ccccc1)NCCC(c1ccccc1)c1ccccc1 (stereo not given)
102

Data provenance: the supplement of paper PMC13380429
